Recorded measurements of viability, T/C, one per entry
Test system: 991263-137-R1-J2-PDC complex spheroid viability;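 note: spheroids exposed to compounds for 7 days before readout; 100% = DMSO vehicle control viability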
Assay: Anticancer human tumor 991263-137-R1-J2-PDC patient-derived colon adenocarcinoma cell line growth inhibition [POLQ]
Details: second compound 1 µM; first compound 0.0316 µM; stronger effect = lower value

>  <compound>
C=CC(=O)N1CCN(c2nc(=O)n(-c3c(C)ccnc3C(C)C)c3nc(-c4c(O)cccc4F)c(F)cc23)C(C)C1 (stereo unspecified) + COC1C(OC(N)=O)C(O)C(Oc2ccc3c(O)c(NC(=O)c4ccc(O)c(CC=C(C)C)c4)c(=O)oc3c2C)OC1(C)C

>  <viability, T/C (%)>
107

$$$$
>  <compound>
O=C(Nc1ccc(O)c(NS(=O)(=O)c2ccc(F)cc2)c1)c1ccc(-c2ccccc2)cc1 + Nc1ccc(C#CCN(C(=O)Cc2ncc(C(F)(F)F)cc2C(F)(F)F)c2ccc(F)cc2)nn1

>  <viability, T/C (%)>
96.2

$$$$
>  <compound>
CNCc1ccc(-c2[nH]c3cc(F)cc4c3c2CCNC4=O)cc1 + Nc1ccc(C#CCN(C(=O)Cc2ncc(C(F)(F)F)cc2C(F)(F)F)c2ccc(F)cc2)nn1

>  <viability, T/C (%)>
99.2

$$$$
>  <compound>
COc1cc2cc(C(=O)CCC(=O)O)sc2cc1OC + Nc1ccc(C#CCN(C(=O)Cc2ncc(C(F)(F)F)cc2C(F)(F)F)c2ccc(F)cc2)nn1

>  <viability, T/C (%)>
107

$$$$
>  <compound>
O=c1[nH]cc(F)c(=O)[nH]1 + Cc1cccc(N(C)C(=O)C2C(O)CCN2c2nc(C)cc(C(F)(F)F)c2C#N)c1

>  <viability, T/C (%)>
110

$$$$
>  <compound>
CC1COCCN1c1cc(C2(O)CC3CCC(C2)O3)c2cnn(-c3ccn[nH]3)c2n1 (stereo unspecified) + Cc1cccc(N(C)C(=O)C2C(O)CCN2c2nc(C)cc(C(F)(F)F)c2C#N)c1

>  <viability, T/C (%)>
92

$$$$
>  <compound>
COc1ccc([C@@H](O)c2cc(-c3ncnc4cc(N5CCOCC5)ccc34)c(F)cc2Cl)nn1 + Cc1cccc(N(C)C(=O)C2C(O)CCN2c2nc(C)cc(C(F)(F)F)c2C#N)c1

>  <viability, T/C (%)>
99.5

$$$$
>  <compound>
O=C(c1cc(Cc2n[nH]c(=O)c3ccccc23)ccc1F)N1CCN(C(=O)C2CC2)CC1 + COC1C(OC(N)=O)C(O)C(Oc2ccc3c(O)c(NC(=O)c4ccc(O)c(CC=C(C)C)c4)c(=O)oc3c2C)OC1(C)C

>  <viability, T/C (%)>
93.9

$$$$
>  <compound>
C#Cc1c(F)ccc2cc(O)cc(-c3ncc4c(N5CC6CCC(C5)N6)nc(OCC56CCCN5CC(F)C6)nc4c3F)c12 (stereo unspecified) + Nc1ccc(C#CCN(C(=O)Cc2ncc(C(F)(F)F)cc2C(F)(F)F)c2ccc(F)cc2)nn1

>  <viability, T/C (%)>
97.5

$$$$
>  <compound>
COc1ccc([C@@H](O)c2cc(-c3ncnc4cc(N5CCOCC5)ccc34)c(F)cc2Cl)nn1 + Nc1ccc(C#CCN(C(=O)Cc2ncc(C(F)(F)F)cc2C(F)(F)F)c2ccc(F)cc2)nn1

>  <viability, T/C (%)>
107

$$$$
>  <compound>
CCc1c2c(nc3ccc(O)cc13)-c1cc3c(c(=O)n1C2)COC(=O)[C@]3(O)CC + Nc1ccc(C#CCN(C(=O)Cc2ncc(C(F)(F)F)cc2C(F)(F)F)c2ccc(F)cc2)nn1

>  <viability, T/C (%)>
56.7

$$$$
